Value source: PubChem BioAssay (NCI)

Test system: 786-0 renal
Assay Info: NCI tumour cell line growth inhibition, 48 h
Kindly state TGI for each of the entries shown.
Value expressed in µM; do not type the unit.

Requested field: TGI. Item: CN1CCN(CCCOc2ccc3nc(Nc4ccc(C(F)(F)F)c(Cl)c4)ccc3c2)CC1
3.21

Requested field: TGI. Item: O=C(Nc1ccc(O)c(NS(=O)(=O)c2ccc(F)cc2)c1)c1ccc(-c2ccccc2)cc1
22.7

Requested field: TGI. Item: CC(C)N(C(=O)c1ccc(NCc2cc(O)ccc2O)cc1)C(C)C
26.6

Requested field: TGI. Item: O=C(OC(CNc1c(C(=O)c2ccccc2)c(=O)n(Cc2ccccc2)c(=O)n1Cc1ccccc1)CN1CCCCC1)c1ccccc1 (stereo not given)
29.4

Requested field: TGI. Item: COc1ccc2c([nH]c3cc(O)c(C)cc32)c1CC=C(C)C
8.61

Requested field: TGI. Item: O=[N+]([O-])c1cc([N+](=O)[O-])c(C(Cl)C(Cl)c2ccccc2)cc1C(Cl)C(Cl)c1ccccc1 (stereo not given)
3.12

Requested field: TGI. Item: Nc1ncnc2c1c(C(=O)NO)cn2C1OC(CO)C(O)C1O (stereo not given)
14.2

Requested field: TGI. Item: C/C=C(\C)C(=O)OC1C2C(C)C(=O)OC2C(O)C(C)C2C=CC(=O)C21C (stereo not given)
30.3

Requested field: TGI. Item: COc1cccc(N2C(=O)[C@H]3[C@H]4CC(C(C)(C)C)CC[C@H]4c4c([nH]c5ccccc45)[C@H]3C2=O)c1 (stereo not given in full)
30.1

###

Kindly state TGI for each of the entries shown.
Tested on: EKVX NSCLC
Assay Info: NCI tumour cell line growth inhibition, 48 h

Recorded TGI for COc1ccc(N2C(=O)C3c4[nH]c5cc(Cl)ccc5c4C4CCC(C(C)(C)C)CC4C3C2=O)cc1 (stereo unspecified) with EKVX NSCLC, please?
> 100 µM

Recorded TGI for Clc1ccc2c(Cl)nc(-c3ccccc3)nc2c1 with EKVX NSCLC, please?
91.1 µM

Recorded TGI for Cc1nn(-c2ccccc2)c(C)c1/C=N/N1CCN(Cc2ccccc2)CC1 with EKVX NSCLC, please?
> 100 µM

Recorded TGI for COc1cc2c(cc1O)-c1c(OC)c(O)cc3c1C(C2)N(C)CC3 (stereo unspecified) with EKVX NSCLC, please?
> 100 µM

Recorded TGI for CC1=C2[C@@H](c3ccccc3)C3C=CC2(c2ccccc23)N(C(=O)Nc2cccc3ccccc23)C1=O (stereo partly specified) with EKVX NSCLC, please?
> 100 µM

Recorded TGI for COc1cc(/C=C2/C(=O)N=C(NC(C)=O)N2C)ccc1OC(C)=O with EKVX NSCLC, please?
> 100 µM

Recorded TGI for Cc1cccc(Nc2nc(NNC(=O)Cc3ccccc3)nc(NNC(=O)c3ccncc3)n2)c1 with EKVX NSCLC, please?
> 10 µM

Recorded TGI for O=C(c1ccncc1)N1CCN(C2=NS(=O)(=O)c3ccccc3N2c2ccccc2)CC1 with EKVX NSCLC, please?
> 100 µM

Recorded TGI for COc1cc([N+](=O)[O-])c(OC)cc1-c1nc2n(c1/C(N)=N/C(=N)N)CCS2 with EKVX NSCLC, please?
> 100 µM

Recorded TGI for CCCCC1=CC1(C#N)[N+](=O)[O-] (stereo unspecified) with EKVX NSCLC, please?
> 100 µM

Recorded TGI for Cc1ccc(C(CC(=O)c2ccccc2)C(C(=O)c2ccccc2)C(c2ccc(C)cc2)C2C(=O)NC(=S)NC2=O)cc1 (stereo unspecified) with EKVX NSCLC, please?
> 50 µM

Recorded TGI for O=C(Nc1ccc(Cl)cc1F)c1cc(Cl)ccc1O with EKVX NSCLC, please?
8.27 µM

Recorded TGI for CNc1ccc(C(=O)CC(O)CCC(C)C2OC(=O)CC(O)CC(=O)CC(O)CC(O)CC(O)CC(O)CC3(O)CC(O)C(C(=O)NCCc4ccccn4)C(CC(OC4OC(C)C(O)C(N)C4O)/C=C/C=C/C=C/C=C\C=C/C=C/C=C/C2C)O3)cc1 (stereo unspecified) with EKVX NSCLC, please?
0.49 µM

Recorded TGI for O=C1C(Cl)=C(Nc2ccccn2)C(=O)c2ccccc21 with EKVX NSCLC, please?
49.4 µM

Recorded TGI for Cc1ccc(-c2n[nH]c(=O)n2N2C(=O)C=CC2=O)cc1 with EKVX NSCLC, please?
> 100 µM

Recorded TGI for O=C(NCc1cccs1)OC1CC2CCC1C2 (stereo unspecified) with EKVX NSCLC, please?
> 100 µM

Recorded TGI for Cc1ccc(C(=O)c2[nH]c(Nc3ccc(Cl)cc3)c(C(=S)Nc3ccccc3)c2N)cc1 with EKVX NSCLC, please?
19 µM

Recorded TGI for CCCCCCCCCCCCCCCCNc1ccc2c(c1)OCCOCCOCCOCCO2 with EKVX NSCLC, please?
14.4 µM

Recorded TGI for N#CC1C(=O)NC2=C(CCOc3c2ccc2ccccc32)C1c1ccc(F)cc1 (stereo unspecified) with EKVX NSCLC, please?
> 100 µM

Recorded TGI for COC(=O)c1cn(CCCCO)nn1 with EKVX NSCLC, please?
> 100 µM

Recorded TGI for Nc1ccc(-c2nc3ccccc3s2)cc1I with EKVX NSCLC, please?
> 100 µM

###

Kindly state TGI for each of the entries shown.
Test system: U251 CNS
Assay Info: NCI tumour cell line growth inhibition, 48 h

Requested field: TGI. Item: O=C(CC(=O)c1cccc([N+](=O)[O-])c1)C(=O)Nc1nc([N+](=O)[O-])cs1
> 100 µM

Requested field: TGI. Item: C(=C\c1nc2ccccc2s1)/c1ccc(N2CCOCC2)s1
> 100 µM

Requested field: TGI. Item: CCOC(=O)NC(C(C(=O)OCC)C(=O)OCC)(C(F)(F)F)C(F)(F)F
> 100 µM

Requested field: TGI. Item: CCOP(=O)(OCC)/C(C#N)=C/c1cc(O)ccc1O
> 100 µM

Requested field: TGI. Item: COc1cc(/C=N/Nc2ncnc3c2cnn3Cc2ccccc2)ccc1O
> 25 µM

Requested field: TGI. Item: Cc1ccc(C(=O)c2[nH]c(Nc3ccc(Cl)cc3)c(C(=S)Nc3ccccc3)c2N)cc1
9.02 µM

Requested field: TGI. Item: Cc1ccc(-c2n[nH]c(=O)n2N2C(=O)C=CC2=O)cc1
> 100 µM

Requested field: TGI. Item: CCCN(CCC)c1ccc(/C=N/NC(=O)c2cccnc2)cc1
> 100 µM

Requested field: TGI. Item: O=[N+]([O-])c1cc([N+](=O)[O-])c(C(Cl)C(Cl)c2ccccc2)cc1C(Cl)C(Cl)c1ccccc1 (stereo unspecified)
3.26 µM

Requested field: TGI. Item: CCN1C(=O)C(N=[N+]=[N-])(c2ccccc2)C(=O)c2ccccc21 (stereo unspecified)
> 100 µM

Requested field: TGI. Item: C/C=C(\C)C(=O)OC1C2C(C)C(=O)OC2C(O)C(C)C2C=CC(=O)C21C (stereo unspecified)
24.6 µM

Requested field: TGI. Item: COc1cc(O)c2c(c1O)C(=O)c1cc(C)ncc1C2=O
30.7 µM

Requested field: TGI. Item: CC(C(=O)N1C(=O)N(C(=O)[C@H](C)C(O)c2ccccc2)[C@H](c2ccccc2)[C@H]1c1ccccc1)[C@@H](O)c1ccccc1 (stereo partly specified)
> 100 µM

Requested field: TGI. Item: CCNC(=O)c1ccc2c(c1)nc(-c1ccc(Cl)cc1)n2-c1cc(C(C)(C)C)[nH]n1
12.2 µM

Requested field: TGI. Item: CCN(CC)c1nc(=O)c(C(=O)C(C)(C)C)c(C(C)(C)C)o1
> 100 µM

Requested field: TGI. Item: O=C1C(Cl)C(c2cccc(Br)c2)N1c1c(O)c(Cl)cc(Br)c1Cl (stereo unspecified)
25.3 µM

Requested field: TGI. Item: CSC1CC2C(CC1(C)SC)C2(C)C (stereo unspecified)
> 100 µM

Requested field: TGI. Item: COC(=O)c1cn(CCCCO)nn1
> 100 µM

Requested field: TGI. Item: COc1ccc(/C(Cl)=C(\CNc2ccccn2)c2ccccc2)cc1OC
> 100 µM

Requested field: TGI. Item: CCN(CC)CCNc1ccc2ncn3c4c(OC)ccc(=O)c4c(O)c1c23
> 100 µM

Requested field: TGI. Item: COc1ccc(CCN2COc3ccc4ccc(=O)oc4c3C2)cc1OC
> 100 µM

###

Tested on: OVCAR-4 ovarian
Assay Info: NCI tumour cell line growth inhibition, 48 h
Reported Endpoint: TGI

Requested field: TGI. Item: COCO[C@@H]1CC2C=Nc3cc(OCc4ccccc4)c(OC)cc3C(=O)N2C1 (stereo not given in full)
27.5 µM

Requested field: TGI. Item: COc1cc2c(cc1O)-c1c(OC)c(O)cc3c1C(C2)N(C)CC3 (stereo not given)
> 100 µM

Requested field: TGI. Item: CS(=O)(=O)c1ccc(-c2[nH]c3ccc(F)cc3c2/C=N/NC(N)=S)cc1
> 100 µM

Requested field: TGI. Item: COc1cc(C2C(C(=O)OCc3ccccc3)=C(C)NC(C)=C2C(=O)OCc2ccccc2)cc(OC)c1OC
> 100 µM

Requested field: TGI. Item: CC(C(=O)N1C(=O)N(C(=O)[C@H](C)C(O)c2ccccc2)[C@H](c2ccccc2)[C@H]1c1ccccc1)[C@@H](O)c1ccccc1 (stereo not given in full)
> 100 µM

Requested field: TGI. Item: Cc1cn(CCCCOC(=O)NC(CCCNC(N)=O)C(=O)O)c(=O)[nH]c1=O (stereo not given)
> 100 µM

Requested field: TGI. Item: Cc1cc(=O)[nH]c(NN2C(Cl)C(=O)C2c2c(O)ccc3ccccc23)n1 (stereo not given)
51.7 µM

Requested field: TGI. Item: C[C@]12CC/C(=N\OC(=O)Nc3ccccc3)C=C1CC[C@@H]1C2CC[C@@]2(C)C1CC[C@@H]2OC(=O)Nc1ccccc1 (stereo not given in full)
> 100 µM

Requested field: TGI. Item: O=[N+]([O-])c1cc(C(F)(F)F)ccc1S(=O)(=O)N[C@@H]1CCCC[C@H]1NS(=O)(=O)c1ccc(C(F)(F)F)cc1[N+](=O)[O-]
29.2 µM

Requested field: TGI. Item: CC1=C2[C@@H](c3ccccc3)C3C=CC2(c2ccccc23)N(C(=O)Nc2cccc3ccccc23)C1=O (stereo not given in full)
> 100 µM

Requested field: TGI. Item: O=C(NCc1cccs1)OC1CC2CCC1C2 (stereo not given)
> 100 µM

Requested field: TGI. Item: Cc1cccc2c1ccc1c3occ(C)c3c(=O)oc21
> 100 µM

Requested field: TGI. Item: CC(=O)O[C@H]1CC[C@@]2(C)C(=CC[C@H]3[C@@H]4C/C(=C\c5ccncc5)[C@H](OC(C)=O)[C@@]4(C)CC[C@@H]32)C1
18.2 µM

Requested field: TGI. Item: COc1cc(/C=N/Nc2ncnc3c2cnn3Cc2ccccc2)ccc1O
15.3 µM

Requested field: TGI. Item: O=C1C2C3CCC(C2C(=O)N1CO)C1C2C(=O)N(CO)C(=O)C2C31 (stereo not given)
> 58.8 µM

Requested field: TGI. Item: Nc1ccc(-c2nc3ccc(Cc4ccc5nc(-c6ccc(N)cc6)oc5c4)cc3o2)cc1
> 100 µM

Requested field: TGI. Item: COc1cc(O)c2c(c1O)C(=O)c1cc(C)ncc1C2=O
> 50 µM

Requested field: TGI. Item: CN(C)C=Nc1c(Br)cc(Br)c2nonc12
> 100 µM

Requested field: TGI. Item: Cc1nc2sc(C(=O)Nc3cccc(Cl)c3C)c(N)c2cc1C(=O)c1ccccc1
> 50 µM

Requested field: TGI. Item: CSC1CC2C(CC1(C)SC)C2(C)C (stereo not given)
> 100 µM
